- Test system: IGROV1 ovarian
- run_description: NCI-60 one-dose screen, 48 h (100 = growth as untreated, 0 = no growth, -100 = all killed)
- cond: 10 µM
- Protocol: Growth inhibition of the IGROV1 human tumor cell line is measured as a screen for anti-cancer activity. Cells are grown in 96 well plates and exposed to the test compound for 48 hours. Compounds are tested at a single concentration, which is 10^-5 M for most compounds. The reported endpoint is percent growth (GI% or GIPRCNT), where numbers from 0 - 100% represent growth inhibition, and numbers from -100% - 0 represent cell death. For example, a value of 40 represents 60% growth inhibition. […]
This is part of a sample that, as a whole, favours compounds with a hit. Of some 83,000 tested, about 20% had one in any assay.
quantity_name: growth (%)
State the answer as a number, implicitly in %.

Examples with answers:
- Nc1nnc(-c2c[nH]c3ccc(F)cc23)c(-c2c[nH]c3ncccc23)n1: 33.5
- O=C(c1ccc(Cl)cc1)C1[C@H](c2ccc(Br)cc2)[C@@H](c2ccccc2)NC12C(=O)Nc1ccc(Cl)cc12 (stereo not given in full): -72.4
- CCOc1ccc(Nc2nc3ccccc3nc2Nc2ccc(OCC)cc2)cc1: 55
- O=C(CSc1ccc(-c2ccc(Cl)cc2)nn1)Nc1ccc(Cl)c(C(F)(F)F)c1: 70.9

Pending molecule:
Measured growth, "Cc1ccc(/C(CSc2nnc(-c3c[nH]c4ccccc34)n2-c2ccccc2)=N/O)cc1" : -62.4

---

- Test system: SF-295 CNS
- run_description: NCI-60 one-dose screen, 48 h (100 = growth as untreated, 0 = no growth, -100 = all killed)
- cond: 10 µM
About 83,000 compounds went through this panel and 20% of them were active in at least one assay; those are over-represented in the sample as a whole. The source made the active and inactive calls. The calls were made as follows: active = growth percent below 10; inactive = the rest.
Entries and their growth

Measured growth, "N#Cc1ccc(NC(=O)CSc2ccc(-c3ccc(Br)cc3)nn2)cc1" : 58.9% (inactive)

Measured growth, CC1(c2ccccc2)NC(=O)N(CC(=O)Nc2ccc(C(=O)/C=C/C=C/c3ccccc3)cc2)C1=O (stereo not given) : 5.15% (active)

Measured growth, "N#Cc1ccc(-c2nn(-c3ccc(C(=O)O)cc3)cc2CNc2ccc(Cl)cc2)cc1" : 63.3% (inactive)

Measured growth, "COc1cccc(/C=C2\N=C(C)N(CCc3ccc(S(N)(=O)=O)cc3)C2=O)c1" : 105% (inactive)

Measured growth, "CN1CCN(c2ccc(C(=O)/C=C/c3ccc(OC(F)F)cc3)cc2)CC1" : 47.4% (inactive)

Measured growth, "O=C1Nc2ccc(Cl)cc2/C1=C/c1cccc(OCc2ccccn2)c1" : -42.4% (active)

Measured growth, "O=C1Nc2cc(Cl)ccc2/C1=C/c1cccc(OCc2ccccc2)c1" : 1.81% (active)

Measured growth, "N#Cc1c(NC(=O)c2ccc(C(F)(F)F)cc2)sc2c1CCC(O)=C2" : 17.5% (inactive)

Measured growth, "COc1ccc(-c2nc(S(=O)(=O)c3ccc(C)cc3)c(S(C)(=O)=O)o2)cc1" : 78.4% (inactive)

Measured growth, COC(=O)CC1CC1C1Cc2c(nc(N(C)S(C)(=O)=O)nc2C(C)C)-c2ccc(F)cc21 (stereo not given) : 72.4% (inactive)

---

- Test system: ACHN renal
- run_description: NCI-60 one-dose screen, 48 h
- cond: 10 µM
About 83,000 compounds went through this panel and 20% of them were active in at least one assay; those are over-represented in the sample as a whole. The source made the active and inactive calls. Rule for the calls: active = growth percent below 10; inactive = the rest.
Parameter call: string, one of TRUE = active, FALSE = inactive

Past entries and their recorded results:
• OCCCNc1oc(-c2ccccc2)nc1[P+](c1ccccc1)(c1ccccc1)c1ccccc1 = FALSE
• CC(=O)Nc1ccc(-n2cnc3cc(-c4ccc(O)cc4)ccc32)cc1F = FALSE
• CNCc1cccc2c1OCCCCCC[C@@](C)(O)CC1(CC1)S(=O)(=O)c1ccc(cc1)-c1cnc(N)c(n1)C(=O)N2 = TRUE

// next entry
Assay result, entry "C=CCn1c(SCC(=O)Nc2ccc(C(=O)/C=C/c3ccccc3)cc2)nnc1-c1c[nH]c2ccccc12" — outcome?
FALSE
